This collection of values is drawn from ChEMBL document CHEMBL1137771.

Test system: Hepatitis C virus
Assay: Antiviral activity against HCV genotype 1b isolate con1 infected in human 2209-23 cells assessed as inhibition of [3H]thymidine incorporation into DNA by scintillation proximity assay in presence of 40% human serum albumin
Assay type: functional, organism-based, Hepacivirus hominis
Details: isolate Con1, 2209-23
Each entry below carries its reported EC50.
Use nM as the unit, but write only the number.

// solved cases for EC50 follow
CS(=O)(=O)Nc1ccc2c(c1)S(=O)(=O)C=C(c1c(O)c3c(Cl)cccc3n(Cc3ccc(F)cc3)c1=O)N2: 593
CS(=O)(=O)Nc1ccc2c(c1)S(=O)(=O)C=C(c1c(O)c3ccc(F)cc3n(Cc3ccc(F)cc3)c1=O)N2: 898

Item COC(C)(C)CCn1c(=O)c(C2=CS(=O)(=O)c3cc(NS(C)(=O)=O)ccc3N2)c(O)c2cc(F)ccc21 has what recorded EC50?
1200

----------
System: Hepatitis C virus
Assay: Antiviral activity against HCV genotype 1b isolate con1 infected in human 2209-23 cells assessed as inhibition of [3H]thymidine incorporation into DNA by scintillation proximity assay in presence of 40% human serum albumin
Type: functional, organism-based, Hepacivirus hominis
Conditions: isolate Con1, 2209-23
experimental_readout: EC50
Give the figure together with its unit, number first.

// solved cases for EC50 follow
COc1ccc2c(c1)c(O)c(C1=CS(=O)(=O)c3cc(NS(C)(=O)=O)ccc3N1)c(=O)n2Cc1ccc(F)cc1: 2050 nM
COc1cc(Cn2c(=O)c(C3=CS(=O)(=O)c4cc(NS(C)(=O)=O)ccc4N3)c(O)c3cc(F)ccc32)ccc1F: 528 nM

// below: EC50 requested for another compound
Item CS(=O)(=O)Nc1ccc2c(c1)S(=O)(=O)C=C(c1c(O)c3cccc(F)c3n(Cc3ccc(F)cc3)c1=O)N2 has what recorded EC50?
2780 nM

----------
Each entry below carries its reported solubility.
Experiment: Solubility of the compound
Type: physicochemical
Use µg/mL as the unit, but write only the number.

Cc1cc(Cn2c(=O)c(C3=CS(=O)(=O)c4cc(NS(C)(=O)=O)ccc4N3)c(O)c3cc(F)ccc32)ccc1F: 6.7

Item O=c1c(C2=CS(=O)(=O)c3ccccc3N2)c(O)c2cc(F)ccc2n1CCC1CC1 has what recorded solubility?
8

----------
Each entry below carries its reported CC50.
Assay: Cytotoxicity against human 2209-23 cells by WST1 assay
Format: cell-based

// solved cases for CC50 follow
CS(=O)(=O)Nc1ccc2c(c1)S(=O)(=O)C=C(c1c(O)c3cc(F)ccc3n(Cc3ccc(F)cc3)c1=O)N2: > 50 µM
COc1cc(Cn2c(=O)c(C3=CS(=O)(=O)c4cc(NS(C)(=O)=O)ccc4N3)c(O)c3cc(F)ccc32)ccc1F: > 50 µM
CN(c1ccc2c(c1)S(=O)(=O)C=C(c1c(O)c3cc(F)ccc3n(Cc3ccc(F)cc3)c1=O)N2)S(C)(=O)=O: > 50 µM
CC(C)(C)CCn1c(=O)c(C2=CS(=O)(=O)c3cc(NS(C)(=O)=O)ccc3N2)c(O)c2cc(F)ccc21: > 50 µM
O=c1c(C2=CS(=O)(=O)c3cc(O)ccc3N2)c(O)c2cc(F)ccc2n1Cc1ccc(F)cc1: > 50 µM
Cc1cc(Cn2c(=O)c(C3=CS(=O)(=O)c4cc(NS(C)(=O)=O)ccc4N3)c(O)c3cc(F)ccc32)ccc1F: > 50 µM
CS(=O)(=O)Nc1ccc2c(c1)S(=O)(=O)C=C(c1c(O)c3cc(F)ccc3n(Cc3ccc(F)c(Cl)c3)c1=O)N2: > 50 µM
CS(=O)(=O)Nc1ccc2c(c1)S(=O)(=O)C=C(c1c(O)c3cc(Cl)ccc3n(Cc3ccc(F)cc3)c1=O)N2: > 50 µM

Item NS(=O)(=O)Nc1ccc2c(c1)S(=O)(=O)C=C(c1c(O)c3cc(F)ccc3n(Cc3ccc(F)cc3)c1=O)N2 has what recorded CC50?
> 50 µM

----------
Assay: Cmax in female dog at 2 mg/kg, po dosed as nanosized particles
Assay type: ADME, organism-based, Canis lupus familiaris
Parameters: dose 2 mg/kg, route oral
Details: in vivo
experimental_readout: Cmax

Item Cc1cc(Cn2c(=O)c(C3=CS(=O)(=O)c4cc(NS(C)(=O)=O)ccc4N3)c(O)c3cc(F)ccc32)ccc1F has what recorded Cmax?
< 15 ng/mL

----------
System: Hepatitis C virus
Assay: Antiviral activity against HCV genotype 1b isolate con1 infected in human 2209-23 cells assessed as inhibition of [3H]thymidine incorporation into DNA by scintillation proximity assay in presence of 5% fetal bovine serum
Type: functional, organism-based, Hepacivirus hominis
Settings: isolate Con1, 2209-23
experimental_readout: pEC50
Note on pEC50: it is the negative log10 of concentration, concentration in mol/L.

// solved cases for pEC50 follow
N#Cc1ccc2c(c1)S(=O)(=O)C=C(c1c(O)c3cc(F)ccc3n(Cc3ccc(F)cc3)c1=O)N2: 5.33
CS(=O)(=O)Nc1ccc2c(c1)S(=O)(=O)C=C(c1c(O)c3cc(F)ccc3n(Cc3ccccc3)c1=O)N2: 7.36
CS(=O)(=O)Nc1ccc2c(c1)S(=O)(=O)C=C(c1c(O)c3ccccc3n(Cc3ccc(F)cc3)c1=O)N2: 7.38
CS(=O)(=O)Nc1ccc2c(c1)S(=O)(=O)C=C(c1c(O)c3c(Cl)cccc3n(Cc3ccc(F)cc3)c1=O)N2: 7.32
CS(=O)(=O)Nc1ccc2c(c1)S(=O)(=O)C=C(c1c(O)c3cc(Cl)ccc3n(Cc3ccc(F)cc3)c1=O)N2: 6.78
O=c1c(C2=CS(=O)(=O)c3cc(F)ccc3N2)c(O)c2cc(F)ccc2n1Cc1ccc(F)cc1: 5.89
CNC(=O)COc1ccc2c(c1)S(=O)(=O)C=C(c1c(O)c3cc(F)ccc3n(Cc3ccc(F)cc3)c1=O)N2: 6.06
Cc1ccc2c(c1)c(O)c(C1=CS(=O)(=O)c3cc(NS(C)(=O)=O)ccc3N1)c(=O)n2Cc1ccc(F)cc1: 7.60

Item CS(=O)(=O)Nc1ccc2c(c1)S(=O)(=O)C=C(c1c(O)c3cc(F)ccc3n(Cc3ccncc3)c1=O)N2 has what recorded pEC50?
7.19

Item Nc1ccc2c(c1)S(=O)(=O)C=C(c1c(O)c3cc(F)ccc3n(Cc3ccc(F)cc3)c1=O)N2 has what recorded pEC50?
6.08

Item CS(=O)(=O)Nc1ccc2c(c1)S(=O)(=O)C=C(c1c(O)c3cc(F)ccc3n(Cc3ccc(F)cc3)c1=O)N2 has what recorded pEC50?
7.85

Item CS(=O)(=O)NCc1ccc2c(c1)S(=O)(=O)C=C(c1c(O)c3cc(F)ccc3n(Cc3ccc(F)cc3)c1=O)N2 has what recorded pEC50?
5.16

Item CS(=O)(=O)Nc1ccc2c(c1)S(=O)(=O)C=C(c1c(O)c3cc(F)ccc3n(Cc3ccc(F)c(F)c3)c1=O)N2 has what recorded pEC50?
7.82

Item Cc1cc(Cn2c(=O)c(C3=CS(=O)(=O)c4cc(NS(C)(=O)=O)ccc4N3)c(O)c3cc(F)ccc32)ccc1F has what recorded pEC50?
7.64

Item CS(=O)(=O)Nc1ccc2c(c1)S(=O)(=O)C=C(c1c(O)c3cc(F)ccc3n(Cc3ccccn3)c1=O)N2 has what recorded pEC50?
5.92

Item CS(=O)(=O)Nc1ccc2c(c1)S(=O)(=O)C=C(c1c(O)c3cccc(F)c3n(Cc3ccc(F)cc3)c1=O)N2 has what recorded pEC50?
6.99

----------
Assay: Cmax in female rat at 100 mg/kg, po after 7 days
Format: ADME, organism-based
Set-up: dose 100 mg/kg, route oral
Settings: in vivo
experimental_readout: Cmax (ng/mL)
Use ng/mL as the unit, but write only the number.

Item Cc1cc(Cn2c(=O)c(C3=CS(=O)(=O)c4cc(NS(C)(=O)=O)ccc4N3)c(O)c3cc(F)ccc32)ccc1F has what recorded Cmax?
15.8

----------
Assay: Cmax in female dog at 2 mg/kg administered intraduodenally as cannula dose
Format: ADME, organism-based, Canis lupus familiaris
Design: dose 2 mg/kg, route intraduodenal
Details: in vivo
experimental_readout: Cmax

Item Cc1cc(Cn2c(=O)c(C3=CS(=O)(=O)c4cc(NS(C)(=O)=O)ccc4N3)c(O)c3cc(F)ccc32)ccc1F has what recorded Cmax?
< 15 ng/mL

----------
Assay: Half life in rat at 2 mg/kg, iv
Assay type: ADME, organism-based
Parameters: dose 2 mg/kg, route intravenous
Conditions: in vivo
experimental_readout: half-life (h)
Use h as the unit, but write only the number.

Item Cc1cc(Cn2c(=O)c(C3=CS(=O)(=O)c4cc(NS(C)(=O)=O)ccc4N3)c(O)c3cc(F)ccc32)ccc1F has what recorded half-life?
1.1

----------
Test: Cmax in rat at 2 mg/kg, iv
Format: ADME, organism-based
Parameters: dose 2 mg/kg, route intravenous
Conditions: in vivo
experimental_readout: Cmax (ng/mL)
Use ng/mL as the unit, but write only the number.

Item Cc1cc(Cn2c(=O)c(C3=CS(=O)(=O)c4cc(NS(C)(=O)=O)ccc4N3)c(O)c3cc(F)ccc32)ccc1F has what recorded Cmax?
130

----------
Assay: Cmax in male rat at 100 mg/kg, po after 7 days
Assay type: ADME, organism-based
Design: dose 100 mg/kg, route oral
Conditions: in vivo
experimental_readout: Cmax (ng/mL)
Use ng/mL as the unit, but write only the number.

Item Cc1cc(Cn2c(=O)c(C3=CS(=O)(=O)c4cc(NS(C)(=O)=O)ccc4N3)c(O)c3cc(F)ccc32)ccc1F has what recorded Cmax?
21.1
